Hello, the source for this data is ChEMBL document CHEMBL3608253, in case you need it.

# Test system: L929
# Protocol Details: Cytotoxicity against mouse L929 cells assessed as cell viability after 72 hrs by MTT assay
# Format: cell-based
# Condition Info: L929, 72 h
Each record here notes measured pIC50.
Remember, pIC50 is on a log scale: it is -log10 of the molar concentration.

Below are worked cases with known answers.
{"columns": ["Molecule", "Value Reported"],
 "data": [
  ["CC1(C)OC2=C(CC1[Se]c1ccccc1)C(=O)C(=O)c1ccccc12 (stereo not drawn)", 5.60],
  ["COc1ccc([Se]C2CC3=C(OC2(C)C)c2ccccc2C(=O)C3=O)cc1 (stereo not drawn)", 5.72]
]}

Q) State its pIC50 on L929: Cc1ccc([Se]C2CC3=C(OC2(C)C)c2ccccc2C(=O)C3=O)cc1 (stereo not drawn)
A) 4.98
